Attribution: patent US4874780A

# experimental protocol: Concentration of BG or BG-d1 in blood samples after iv injection (HPLC)
# Assay type: in vivo, male Wistar rats
# protocol conditions: serum; rat, iv, 2 minutes; read-out: Amount of unmetabolized drug in blood samples
# Protocol: Measurement of concentration of 4,6-O-benzylidene-D-glucose (BG) or 4,6-O-deuterobenzylidene-d1 -D-glucose (BG-d1) in blood samples (Table 5). Blood samples were taken from male Wistar rats immediately before and at several intervals after intravenous injection of BG or BG-d1. Blood serum was separated by centrifugation. […] Samples were then analyzed for BG or BG-d1 content by High Performance Liquid Chromatography (HPLC). […]
The reader will find reported concentration at 2 min values listed item by item below.
Give the value, in units of µM, as a plain number.

* [2H]C1(c2ccccc2)OC[C@H]2OC(O)[C@H](O)[C@@H](O)[C@@H]2O1 (stereo partly drawn) [BG-d1, 4,6-O-deuterobenzylidene-d1 -D-glucose] | 220

Suppose we examine the molecule OC1O[C@@H]2COC(c3ccccc3)O[C@H]2[C@H](O)[C@H]1O (some centres unmarked) ; what concentration at 2 min value has been reported?
230
